Listing: IC50 of selected compounds
Molecular target: recombinant HIV reverse transcriptase (HIV RTR) (Human immunodeficiency virus type 1 group M subtype B, UniProt P04585)
Construct: recombinant HIV reverse transcriptase (HIV RTR)
Assay: Reverse transcriptase assay: incorporation of tritiated deoxyguanosine monophosphate into acid-precipitable cDNA by recombinant HIV reverse transcriptase
Details: poly r(C).oligo d(G)12-18 template, [3H]dGTP, pH 8.2 buffer, 37° C., 45 minutes
// units = nM; emit number, no label

Example entries begin here.
CCc1cc(NCc2cc(CC)c(C)nc2OC)c(O)nc1C
29
CCc1cc(NCc2cc(CCO)c(C)nc2OC)c(=O)[nH]c1C
250
CCc1cc(NCc2cc(C(C)O)c(C)nc2OC)c(=O)[nH]c1C (stereo not shown)
390

# evaluate next
Item: CCc1cc(CNc2cc(C(C)O)c(C)[nH]c2=O)c(OC)nc1C (stereo not shown) | IC50: 195

// data source = patent US5364776A
